FYI, the data here is from PubChem BioAssay (NCATS).

- test_summary: Quantitative High-Throughput drug screen in 47 multiple myeloma cell lines against the NCATS MIPE library collection: XG1_PLB cell viability assay (AID 1919866); further: nearly all actives have a fitted effect of over 35% in size
- experimental_conditions: CellTiter-Glo ATP, 48 h; series mostly up to 45.8 µM
Records with an inconclusive call do not appear. The source made the active and inactive calls. The call rests on the fitted dose curve; in most records, active means well fitted cell-killing curve with a large enough effect; inconclusive means small, poorly fitted or top-dose-only effect, or effect the other way; inactive means no such curve, though single readings can be large or run the other way.
// allowed return values: active, inactive

{"columns": ["compound", "answer_label"],
 "data": [
  ["CCNC(=O)CCCC=CC[C@@H]1[C@H](C=CC(O)CCc2ccccc2)[C@@H](O)C[C@@H]1O (stereo not given in full)", "inactive"],
  ["CON(C)C(=O)N1N=C(c2cc(F)ccc2F)S[C@]1(CCCN)c1ccccc1", "inactive"],
  ["C=C1[C@H](n2cnc3c(=O)[nH]c(N)nc32)C[C@H](O)[C@H]1CO", "active"],
  ["CC(C)CN(C[C@H](O)[C@H](Cc1ccccc1)NC(=O)O[C@H]1CCOC1)S(=O)(=O)c1ccc(N)cc1", "active"],
  ["C=CC(=O)Nc1cccc(Sc2nc(Nc3ccc(N4CCN(C)CC4)cc3)ncc2Cl)c1", "active"],
  ["COc1cc(Cl)cn2c(-c3cccc(NC4CNC4)n3)cnc12", "active"],
  ["COc1ccc2nc3cc(Cl)ccc3c(Nc3cc(CN4CCCC4)c(O)c(CN4CCCC4)c3)c2n1", "active"],
  ["O=C(O)C1=CC(O)C(O)[C@H](O)C1 (stereo not given in full)", "inactive"],
  ["NS(=O)(=O)c1cc(Cl)c(Cl)c(S(N)(=O)=O)c1", "inactive"]
]}

Field: next compound
Query: Recorded test call requested for CC=C1C2C=C(C)CC1(N)c1ccc(=O)[nH]c1C2 (stereo not given)
Reply: inactive
